- target.or.system: Pro-neuregulin-1, membrane-bound isoform (Homo sapiens) (UniProt Q02297)
- Sequence (Q02297 whole entry, looked up, canonical isoform): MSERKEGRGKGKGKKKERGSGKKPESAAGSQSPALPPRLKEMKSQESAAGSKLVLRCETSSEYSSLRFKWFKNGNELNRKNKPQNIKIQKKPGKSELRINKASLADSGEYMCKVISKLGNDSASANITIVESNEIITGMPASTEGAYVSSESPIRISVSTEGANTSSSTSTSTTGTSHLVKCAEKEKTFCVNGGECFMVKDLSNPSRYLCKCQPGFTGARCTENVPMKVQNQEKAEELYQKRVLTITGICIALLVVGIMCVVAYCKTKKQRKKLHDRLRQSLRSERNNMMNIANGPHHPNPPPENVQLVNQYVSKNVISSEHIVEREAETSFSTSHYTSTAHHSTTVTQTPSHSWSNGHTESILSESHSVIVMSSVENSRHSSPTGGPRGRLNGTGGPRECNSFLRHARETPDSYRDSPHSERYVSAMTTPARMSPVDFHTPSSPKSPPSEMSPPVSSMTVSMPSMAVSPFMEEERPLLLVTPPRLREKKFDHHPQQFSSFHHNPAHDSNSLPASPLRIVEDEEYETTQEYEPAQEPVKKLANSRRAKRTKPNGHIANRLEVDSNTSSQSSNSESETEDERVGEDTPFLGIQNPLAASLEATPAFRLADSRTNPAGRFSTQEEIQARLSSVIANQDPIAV
- protocol: small molecules binding neuregulin-1 protein – biochemical, small-molecule microarray, fluorescence 635/667, psychiatric disease protein project, primary screen (AID 1075);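 also: score combines 667 nm spot fluorescence with signal to noise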
- reported.conditions: NRG1 binding, 635 nm fluorescence, higher = more signal
Criterion: composite z-score meeting or surpassing 0.6. Met: condition met. Not met: condition not met.

Here are 10 compounds together with their reported answers.
[N-]=[N+]=NCc1ccccc1[C@H]1OC(c2ccc(OCCCO)cc2)=N[C@@]1(Cc1ccccc1)C(N)=O :: condition met
C=CCC(OC(C)=O)[C@@H]1[C@@H](N(Cc2cccc3ccccc23)C(=O)Cc2ccc(F)cc2)c2cc(OCCCO)ccc2N1C(=O)Cc1ccc(OC)cc1 (stereo partly drawn) :: condition not met
COC(=O)[C@H]1N=C(c2ccc(OCCCO)cc2)O[C@H]1c1ccccc1CN=[N+]=[N-] :: condition not met
COCCOC(=O)N1C(=O)[C@@]2(c3cc(C#CCNC(N)=O)ccc31)[C@H](C(N)=O)[C@H]1C(=O)O[C@H](c3ccccc3)[C@H](c3ccccc3)N1[C@@H]2c1ccc(OCCO)cc1 :: condition not met
CC(C)(C)N1CC=CC23O[C@@H]4C=CCCOC(=O)C4[C@H]2C(=O)N(CCCO)[C@@H]3C1=O (stereo partly drawn) :: condition not met
COc1cc(NN2C(C(O)c3ccc(I)cc3)C=CC3C(=O)N(C)C(=O)C32)cc(OC)c1OC (stereo not drawn) :: condition met
O=C1O[C@H](c2ccccc2)[C@H](c2ccccc2)N2[C@H]1[C@@H](C(=O)N1CCCCCCC1)[C@]1(C(=O)Nc3ccc(C#CCCO)cc31)[C@H]2c1ccc(OCCO)cc1 :: condition met
CCOC(=O)C1=CC[C@@H](c2ccc(N(CC)CC)cc2)N(S(=O)(=O)c2ccc(C)cc2)[C@H]1c1ccc([N+](=O)[O-])cc1 :: condition met
COCCOC(=O)N1C(=O)[C@@]2(c3cc(C#CC4(O)CCCCCC4)ccc31)[C@H](C(=O)N1CCc3cc(OC)c(OC)cc3C1)[C@H]1C(=O)O[C@H](c3ccccc3)[C@H](c3ccccc3)N1[C@@H]2c1ccccc1OCCO :: condition not met
NC(=O)NCC#Cc1ccc2c(c1)[C@]1(C(=O)N2)[C@H](c2ccc(O)cc2)N2[C@H](c3ccccc3)[C@H](c3ccccc3)OC(=O)[C@H]2[C@@H]1C(=O)NC[C@H](O)c1ccccc1 :: condition met

Check if composite z-score >= 0.6 (inclusive). Item: O=C1C[C@@](C(=O)O)(c2ccc([N+](=O)[O-])cc2)[C@@H](c2ccc(CO)cc2)N1CC12CC3CC(CC(C3)C1)C2
condition met

Repeat for the following compound: CC(C)C[C@H]1NC(=O)[C@H](C)NC(=O)[C@@]23C(=O)N[C@@H](Cc4ccccc4)C2[C@H](C)[C@@]2(C)O[C@H]2C3/C=C/C/C=C\CNC1=O (stereo partly drawn)
condition not met

Repeat for the following compound: COCCOC(=O)N1C(=O)[C@@]2(c3cc(C#CCNC(N)=O)ccc31)[C@H](c1ccc(OCCO)cc1)N1[C@H](c3ccccc3)[C@H](c3ccccc3)OC(=O)[C@H]1[C@@H]2C(=O)N1CCN(c2ncccn2)CC1
condition not met

----------
- protocol: optical density change of DRC41 E. coli – strain DRC41, OD650, 24 h, E. coli filamentation project, primary screen (AID 1093);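 also: MC1000 strain lacking acrAB efflux and sulA so SOS filamentation is blocked; test concentration not given here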
- reported.conditions: E. coli DRC41 growth, higher = more signal, called active from +8 up or from −8 down
Criterion: z-score meeting or surpassing 0.2. Met: rule met. Not met: rule not met.

COC(=O)c1ccc(OC)c(/C=C\CC(CCc2ccccc2)OC(=O)c2ccncc2)c1 (stereo not given) :: rule not met
O=C1C2C=CC(C(O)c3ccccn3)N(Nc3ccccc3)C2C(=O)N1c1ccccc1 (stereo not given) :: rule not met
COCCCNC(=O)[C@@H]1c2ccccc2C(=O)N(c2ccc(C)cn2)[C@H]1c1ccc(CO)cc1 :: rule not met
CC(C)CCC[C@@H](C)[C@H]1CC[C@@]2(C)C3=C(CC[C@]12C)[C@@]1(C)CC[C@H](OC(=O)C(C)(C)C)C(C)(C)C1CC3 (stereo not given in full) :: rule met
COc1cc(C(O)C2C=CC3C(=O)N(C)C(=O)C3N2NC(=O)OC(C)(C)C)cc(OC)c1OC (stereo not given) :: rule not met

Check if z-score >= 0.2 (inclusive). Item: [N-]=[N+]=Nc1ccccc1[C@H]1OC(c2ccc(OCCCO)cc2)=N[C@@]1(Cc1ccccc1)C(=O)NCc1ccccc1
rule met

Repeat for the following molecule: COc1ccc(C(=O)Nc2ccc(CN3C(=O)[C@]4(O[C@H](CCn5cc([C@H](O)c6ccccc6)nn5)[C@@H]([Si](C)(C)c5ccc(OC)cc5)[C@@H]4C)c4ccccc43)cc2)cc1
rule not met
